measurement-target: Tyrosine-protein kinase Lck (Homo sapiens, UniProt P06239)
Sequence (P06239 whole entry): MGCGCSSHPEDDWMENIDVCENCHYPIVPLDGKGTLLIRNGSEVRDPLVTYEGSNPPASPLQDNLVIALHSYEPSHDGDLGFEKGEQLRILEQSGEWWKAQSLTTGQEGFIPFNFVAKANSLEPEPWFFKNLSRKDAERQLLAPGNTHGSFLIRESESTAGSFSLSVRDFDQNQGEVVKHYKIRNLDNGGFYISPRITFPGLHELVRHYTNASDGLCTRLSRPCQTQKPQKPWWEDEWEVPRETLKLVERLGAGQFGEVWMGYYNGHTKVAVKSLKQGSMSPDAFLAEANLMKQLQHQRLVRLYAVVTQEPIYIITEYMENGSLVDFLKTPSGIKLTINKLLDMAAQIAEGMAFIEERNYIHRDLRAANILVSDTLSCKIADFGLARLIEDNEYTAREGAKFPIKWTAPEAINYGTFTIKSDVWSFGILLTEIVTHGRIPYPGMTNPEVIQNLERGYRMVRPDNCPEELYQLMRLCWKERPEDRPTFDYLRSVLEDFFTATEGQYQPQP
pIC50: −log10 of the molar value.
Think of 8 as a floor: if pIC50 stands on it or above, it is 1.0; beneath it, 0.0.

IN: Item `CC(C)n1cc(-c2ccc(Oc3ccccc3C(=O)O)cc2)c2c(N)ncnc21` with pIC50 of 8 or above?
OUT: 0.0

IN: Item `NCc1c(-c2ccc(Oc3ccccc3)cc2)c2c(N)ncnc2n1C1CCCC1` with pIC50 of 8 or above?
OUT: 0.0

IN: Item `CC(C)(C)n1cc(-c2ccc(Oc3cccc(N)c3)cc2)c2c(N)ncnc21` with pIC50 of 8 or above?
OUT: 1.0

IN: Item `CC(C)n1cc(-c2ccc(Oc3ccc(C#N)cc3)cc2)c2c(N)ncnc21` with pIC50 of 8 or above?
OUT: 0.0

IN: Item `CC(C)(C)n1cc(-c2ccc(Oc3ccc(N)cc3)cc2)c2c(N)ncnc21` with pIC50 of 8 or above?
OUT: 1.0

IN: Item `N#Cc1c(-c2ccc(Oc3ccccc3)cc2)c2c(N)ncnc2n1C1CCCC1` with pIC50 of 8 or above?
OUT: 1.0

IN: Item `CC(C)(C)n1cc(-c2ccc(Oc3ccc(O)cc3)cc2)c2c(N)ncnc21` with pIC50 of 8 or above?
OUT: 1.0

IN: Item `COc1ccc(Oc2ccc(-c3cn(C(C)(C)C)c4ncnc(N)c34)cc2)cc1` with pIC50 of 8 or above?
OUT: 1.0

---

So I've got a bunch of molecules here, and I need their IC50 values.
Just the number please, in µM, no unit attached.

IN: Look up and report measured IC50 (Tyrosine-protein kinase Lck (Homo sapiens, UniProt P06239)) for the following molecule: `CC(C)n1cc(-c2ccc(Oc3ccc(C(=O)O)cc3)cc2)c2c(N)ncnc21`
OUT: 0.131

IN: Look up and report measured IC50 (Tyrosine-protein kinase Lck (Homo sapiens, UniProt P06239)) for the following molecule: CC(O)c1c(-c2ccc(Oc3ccccc3)cc2)c2c(N)ncnc2n1C1CCCC1 (stereo not given)
OUT: 0.47

IN: Look up and report measured IC50 (Tyrosine-protein kinase Lck (Homo sapiens, UniProt P06239)) for the following molecule: `COc1ccccc1Oc1ccc(-c2cn(C3CCCC3)c3ncnc(N)c23)cc1`
OUT: 0.006

IN: Look up and report measured IC50 (Tyrosine-protein kinase Lck (Homo sapiens, UniProt P06239)) for the following molecule: `NC(=O)c1c(-c2ccc(Oc3ccccc3)cc2)c2c(N)ncnc2n1C1CCCC1`
OUT: 0.03

---

assay-details: Inhibition of p56 Lck tyrosine kinase (catalytic domain), in presence of 1 mM ATP
readout-name: log10(IC50) (log10 of the value in µM)
Parameter value (number): base-10 log of IC50 in µM.

IN: Using known records, supply log10(IC50) for `CC(C)n1cc(-c2ccc(Oc3ccc(C#N)cc3)cc2)c2c(N)ncnc21`
OUT: 1.39

IN: Using known records, supply log10(IC50) for `CC(C)n1cc(-c2ccc(Oc3ccccc3[N+](=O)[O-])cc2)c2c(N)ncnc21`
OUT: 0.62

IN: Using known records, supply log10(IC50) for `Nc1ncnc2c1c(-c1ccc(Oc3ccccc3O)cc1)cn2C1CCCC1`
OUT: 0.50

IN: Using known records, supply log10(IC50) for `NCc1c(-c2ccc(Oc3ccccc3)cc2)c2c(N)ncnc2n1C1CCCC1`
OUT: 1.40

IN: Using known records, supply log10(IC50) for `CC(C)n1cc(-c2ccc(Oc3ccccc3N)cc2)c2c(N)ncnc21`
OUT: 0.96

IN: Using known records, supply log10(IC50) for `CC(C)n1cc(-c2ccc(Oc3ccccc3C#N)cc2)c2c(N)ncnc21`
OUT: 0.40

IN: Using known records, supply log10(IC50) for `CC(C)n1cc(-c2ccc(Oc3ccccc3CO)cc2)c2c(N)ncnc21`
OUT: 1.00

IN: Using known records, supply log10(IC50) for `COc1ccccc1Oc1ccc(-c2cn(C3CCCC3)c3ncnc(N)c23)cc1`
OUT: 0.85

IN: Using known records, supply log10(IC50) for `Nc1ncnc2c1c(-c1ccc(Oc3ccccc3)cc1)c(CO)n2C1CCCC1`
OUT: 1.26

IN: Using known records, supply log10(IC50) for `Nc1ncnc2c1c(-c1ccc(Oc3ccccc3)cc1)cn2C1CCCC1`
OUT: 0.03

IN: Using known records, supply log10(IC50) for `Nc1ncnc2c1c(-c1ccc(Oc3ccccc3)cc1)c(Cl)n2C1CCCC1`
OUT: 0.91

IN: Using known records, supply log10(IC50) for `NC(=O)c1c(-c2ccc(Oc3ccccc3)cc2)c2c(N)ncnc2n1C1CCCC1`
OUT: 1.64

IN: Using known records, supply log10(IC50) for `Nc1ncnc2c1c(-c1ccc(Oc3ccccc3)cc1)c(Br)n2C1CCCC1`
OUT: 1.07

IN: Using known records, supply log10(IC50) for `CC(C)n1cc(-c2ccc(Oc3ccc(CO)cc3)cc2)c2c(N)ncnc21`
OUT: 1.20

IN: Using known records, supply log10(IC50) for `N#Cc1c(-c2ccc(Oc3ccccc3)cc2)c2c(N)ncnc2n1C1CCCC1`
OUT: 1.18

IN: Using known records, supply log10(IC50) for `Nc1ncnc2c1c(-c1ccc(Oc3ccccc3)cc1)c(C(=O)O)n2C1CCCC1`
OUT: 1.53

---

assay-details: Inhibition of B lymphoid tyrosine kinase (Blk)
readout-name: IC50 (nM)
Just the number please, in nM, no unit attached.

IN: Using known records, supply IC50 for `Nc1ncnc2c1c(-c1ccc(Oc3ccccc3)cc1)cn2C1CCCC1`
OUT: 66

---

So I've got a bunch of compounds here, and I need their pIC50 values.
Scale for pIC50: -log10 of concentration given in mol/L; no unit attached.

IN: Look up and report measured pIC50 (Vascular endothelial growth factor receptor 2 (Homo sapiens)) for the following compound: `CC(C)(C)n1cc(-c2ccc(Oc3cccc(N)c3)cc2)c2c(N)ncnc21`
OUT: 6.40

IN: Look up and report measured pIC50 (Vascular endothelial growth factor receptor 2 (Homo sapiens)) for the following compound: `CC(C)n1cc(-c2ccc(Oc3ccccc3C(=O)O)cc2)c2c(N)ncnc21`
OUT: 5.30

IN: Look up and report measured pIC50 (Vascular endothelial growth factor receptor 2 (Homo sapiens)) for the following compound: CC(O)c1c(-c2ccc(Oc3ccccc3)cc2)c2c(N)ncnc2n1C1CCCC1 (stereo not given)
OUT: 5.73

IN: Look up and report measured pIC50 (Vascular endothelial growth factor receptor 2 (Homo sapiens)) for the following compound: `N#Cc1c(-c2ccc(Oc3ccccc3)cc2)c2c(N)ncnc2n1C1CCCC1`
OUT: 5.49

IN: Look up and report measured pIC50 (Vascular endothelial growth factor receptor 2 (Homo sapiens)) for the following compound: `Nc1ncnc2c1c(-c1ccc(Oc3ccccc3)cc1)c(CO)n2C1CCCC1`
OUT: 5.97

IN: Look up and report measured pIC50 (Vascular endothelial growth factor receptor 2 (Homo sapiens)) for the following compound: `Nc1ncnc2c1c(-c1ccc(Oc3ccccc3O)cc1)cn2C1CCCC1`
OUT: 7.05

IN: Look up and report measured pIC50 (Vascular endothelial growth factor receptor 2 (Homo sapiens)) for the following compound: `COc1ccccc1Oc1ccc(-c2cn(C3CCCC3)c3ncnc(N)c23)cc1`
OUT: 6.30

IN: Look up and report measured pIC50 (Vascular endothelial growth factor receptor 2 (Homo sapiens)) for the following compound: `Nc1ncnc2c1c(-c1ccc(Oc3ccccc3)cc1)c(Br)n2C1CCCC1`
OUT: 5.80

IN: Look up and report measured pIC50 (Vascular endothelial growth factor receptor 2 (Homo sapiens)) for the following compound: `COc1ccc(Oc2ccc(-c3cn(C(C)(C)C)c4ncnc(N)c34)cc2)cc1`
OUT: 5.88

IN: Look up and report measured pIC50 (Vascular endothelial growth factor receptor 2 (Homo sapiens)) for the following compound: `CC(C)n1cc(-c2ccc(Oc3ccc(C#N)cc3)cc2)c2c(N)ncnc21`
OUT: 6.89

---

measurement-target: Tyrosine-protein kinase CSK (Homo sapiens, UniProt P41240)
Sequence (P41240 whole entry): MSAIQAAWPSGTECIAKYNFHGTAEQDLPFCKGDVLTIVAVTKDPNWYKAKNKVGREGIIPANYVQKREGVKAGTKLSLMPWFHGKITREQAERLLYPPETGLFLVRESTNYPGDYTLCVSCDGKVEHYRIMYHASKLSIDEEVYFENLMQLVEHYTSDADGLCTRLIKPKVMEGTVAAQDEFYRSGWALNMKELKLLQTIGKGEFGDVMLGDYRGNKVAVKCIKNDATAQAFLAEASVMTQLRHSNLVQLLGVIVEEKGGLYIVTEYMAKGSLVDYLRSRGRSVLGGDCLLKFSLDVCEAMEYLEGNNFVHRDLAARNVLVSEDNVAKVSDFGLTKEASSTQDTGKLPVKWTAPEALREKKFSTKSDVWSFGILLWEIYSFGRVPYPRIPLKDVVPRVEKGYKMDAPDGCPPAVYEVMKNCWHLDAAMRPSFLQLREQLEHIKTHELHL
readout-name: IC50 (µM)
Just the number please, in µM, no unit attached.

IN: Using known records, supply IC50 for `Nc1ncnc2c1c(-c1ccc(Oc3ccccc3)cc1)cn2C1CCCC1`
OUT: 5.18

---

So I've got a bunch of molecules here, and I need their log10 of IC50 values.
measurement-target: Tyrosine-protein kinase Lck (Homo sapiens)
Parameter value (number): base-10 log of IC50 in nM.

IN: Using known records, supply log10 of IC50 for `CC(C)n1cc(-c2ccc(Oc3ccccc3N)cc2)c2c(N)ncnc21`
OUT: 0.70

IN: Using known records, supply log10 of IC50 for `Cc1c(-c2ccc(Oc3ccccc3)cc2)c2c(N)ncnc2n1C1CCCC1`
OUT: 2.41

IN: Using known records, supply log10 of IC50 for `Nc1ncnc2c1c(-c1ccc(Oc3ccccc3)cc1)c(Cl)n2C1CCCC1`
OUT: 1.04

IN: Using known records, supply log10 of IC50 for `COCc1c(-c2ccc(Oc3ccccc3)cc2)c2c(N)ncnc2n1C1CCCC1`
OUT: 2.49

IN: Using known records, supply log10 of IC50 for `Nc1ncnc2c1c(-c1ccc(Oc3ccccc3)cc1)c(Br)n2C1CCCC1`
OUT: 1.48

IN: Using known records, supply log10 of IC50 for `Nc1ncnc2c1c(-c1ccc(Oc3ccccc3)cc1)c(C(=O)O)n2C1CCCC1`
OUT: 1.30

IN: Using known records, supply log10 of IC50 for `Nc1ncnc2c1c(-c1ccc(Oc3ccccc3)cc1)c(CN1CCOCC1)n2C1CCCC1`
OUT: 3.17
